Test System: T1, corticotropin-releasing hormone (CRH) peptide (human and mouse, UniProt P01143 145-185 (rat entry), not fully specified)
T1 peptide: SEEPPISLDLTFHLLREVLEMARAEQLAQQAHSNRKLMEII
Experimental Protocol: cell-based or functional assay
Task for the reader: assign each of the following binders its reported unlabelled nM value (Table 5 matrix; likely hCRHR1-Luc IC50 as in Tables 6-8).
Please give a number only; it is taken to be in nM.

Memo: PR302052 (antibody, human IgG1, kappa, V domains shown) VH: EMQLVESGGGLVQPGGSLKLSCAASGFTFSNYWMNWVRQASGKGLEWVAEIRLKSNNYATHYAESVKGRFTISRDDSKSTVYLQMNSLKTEDTAVYYCTVGTLVYWGQGTLVTVSS VL: EIVLTQSPATLSLSPGERATLSCRASQSVSTSTYNYMHWFQQKPGQAPRLLIKFASNLESGIPARFSGSGSGTDFTLTISSLEPEDTAVYYCQHSWEIPYTFGQGTKLEIKR , reported unlabelled nM value (Table 5 matrix; likely hCRHR1-Luc IC50 as in Tables 6-8): 2.05

Note to self: unlabelled nM value (Table 5 matrix; likely hCRHR1-Luc IC50 as in Tables 6-8) recorded for PR302031 (antibody, human IgG1, kappa, V domains shown) VH: EVQLVESGGGLVQPGGSLRLSCAASGFTFSNYWMNWVRQAPGKGLEWVGEIRLKSNNYATHYAESVKGRFTISRDDSKNSLYLQMNSLKTEDTAVYYCTVGTLVYWGQGTLVTVSS VL: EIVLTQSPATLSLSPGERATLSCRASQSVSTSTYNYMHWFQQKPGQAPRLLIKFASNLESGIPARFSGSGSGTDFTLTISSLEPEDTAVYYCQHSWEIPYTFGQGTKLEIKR was 14

Kindly note the recorded unlabelled nM value (Table 5 matrix; likely hCRHR1-Luc IC50 as in Tables 6-8) for PR302069 (antibody, human IgG1, kappa, V domains shown) VH: EMQLVESGGGLVKPGGSLRLSCAASGFTFSNYWMNWVRQAPGKGLEWVAEIRLKSNNYATHYAESVKGRFTISRDDSKSTVYLQMNSLKTEDTAVYYCTVGTLVYWGQGTLVTVSS VL: DIQLTQSPSSLSASVGDRVTITCRASQSVSTSTYNYMHWFQQKPGKAPKLLIKFASNLESGVPSRFSGSGSGTDFTLTISSLQPEDTATYYCQHSWEIPYTFGQGTKLEIKR , which is 1.54
